Please go through the items and note down their Kd.
Biological target: T1, PLCγ1 SH2-SH2-SH3 (tandem SH2 domains plus the SH3 domain of PLCγ1) (human, UniProt P19174 536-863)
T1 construct: PLCγ1, human, tandem SH2 domains plus SH3 domain, aa 536–863; Printed MW = 42531 of the recombinant protein; also called recombinant PLCγ1; source: E. coli BL21(DE3)pLysS, purified (Co2+ or Ni2+ column, size exclusion chromatography, same day as SPR)
T1 sequence: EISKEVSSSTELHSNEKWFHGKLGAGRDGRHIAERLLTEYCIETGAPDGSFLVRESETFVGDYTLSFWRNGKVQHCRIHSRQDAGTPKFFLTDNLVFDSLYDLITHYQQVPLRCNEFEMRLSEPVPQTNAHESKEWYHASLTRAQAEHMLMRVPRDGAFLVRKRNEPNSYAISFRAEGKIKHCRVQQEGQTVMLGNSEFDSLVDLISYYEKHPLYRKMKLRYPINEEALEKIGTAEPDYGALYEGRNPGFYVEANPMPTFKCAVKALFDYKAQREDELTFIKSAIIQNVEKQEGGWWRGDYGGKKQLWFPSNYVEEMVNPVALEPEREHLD
Test: SPR; biotinylated phosphopeptides immobilised on streptavidin chip (about 25 RU single motifs); soluble recombinant protein injected in two-fold dilutions; 37°C; HBS-EP (10 mM HEPES pH 7.4, 150 mM NaCl, 3.4 mM EDTA, 0.005% P20); equilibrium binding, one-site model; proteins purified on the same day as SPR (Tables 1 and 6)
Conditions: both partners purified
Non-standard residues stand in square brackets, D forms with d. No end group written: not given here. *: point of attachment. Biotin = O=C1N[C@H]2[C@H](CS[C@H]2CCCCC(=O)*)N1; pY = N[C@@H](Cc1ccc(OP(=O)(O)O)cc1)C(=O)O
Give just the numeric value; nM need not be written.

query: I have this binder here, Biotin-NSNSD[pY]VDVLP (EAT-2, human, tail with the conserved tyrosine motif Y127; also called EAT-2 pY127; EAT-2 tail phosphopeptide; source: synthetic peptide (Peptide Protein Research Ltd)) [EAT-2 Y127 phosphopeptide (Biotin-NSNSDpYVDVLP)] , and I need its recorded Kd.
result: 10

query: Quick one: Biotin-EFLTI[pY]EDVKD (CD244 (SLAMF4), human, cytoplasmic ITSM1; also called SLAMF4 ITSM1; source: synthetic peptide (Peptide Protein Research Ltd)) [CD244 ITSM1 phosphopeptide (Biotin-EFLTIpYEDVKD)]
result: 800

query: Quick one: Biotin-HNPG[pY]LVVLPD (LAT, human, stretch around Y132; also called LAT pY132; source: synthetic peptide (Peptide Protein Research Ltd)) [LAT Y132 phosphopeptide (Biotin-HNPGpYLVVLPD)]
result: 20
